Target: T1, Formyl-Peptide Receptor 1 (UniProt P21462 1-350, limits assumed)
T1 sequence (looked up): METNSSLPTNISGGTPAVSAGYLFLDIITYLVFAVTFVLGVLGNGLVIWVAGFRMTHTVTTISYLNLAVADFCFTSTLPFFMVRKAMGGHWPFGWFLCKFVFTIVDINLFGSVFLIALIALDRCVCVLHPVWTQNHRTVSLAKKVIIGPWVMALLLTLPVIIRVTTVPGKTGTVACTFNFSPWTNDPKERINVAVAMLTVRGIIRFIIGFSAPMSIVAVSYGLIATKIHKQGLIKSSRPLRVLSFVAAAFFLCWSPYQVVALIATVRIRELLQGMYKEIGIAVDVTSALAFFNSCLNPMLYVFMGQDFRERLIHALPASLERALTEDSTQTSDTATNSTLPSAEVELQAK
Experiment: cell-based or functional assay
Bridges are numbered along the chain shown (N, C = ends). [ ]: non-standard residue; d: D form.
outcome-measure: β-Arrestin IC50 (nM)
Unit nM implied. Number only.

Query block: Item cyclo(EHKCHG[dP]WTICYEK[dP]P) (disulfide 4-11; SMILES CC[C@H](C)[C@@H]1NC(=O)[C@H]([C@@H](C)O)NC(=O)[C@H](Cc2c[nH]c3ccccc23)NC(=O)[C@H]2CCCN2C(=O)CNC(=O)[C@H](Cc2c[nH]cn2)NC(=O)[C@@H]2CSSC[C@H](NC1=O)C(=O)N[C@@H](Cc1ccc(O)cc1)C(=O)N[C@@H](CCC(=O)O)C(=O)N[C@@H](CCCCN)C(=O)N1CCC[C@@H]1C(=O)N1CCC[C@H]1C(=O)N[C@@H](CCC(=O)O)C(=O)N[C@@H](Cc1c[nH]cn1)C(=O)N[C@@H](CCCCN)C(=O)N2) [cyclo(-Glu-His-Lys-Cys-His-Gly-^DPro-Trp-Thr-Ile-Cys-Tyr-Glu-Lys-^DPro-Pro-)] has what recorded β-Arrestin IC50?
Result block: 165

Query block: Entry under review: cyclo(YHECHG[dP]WTICYQK[dP]P) (disulfide 4-11; SMILES CC[C@H](C)[C@@H]1NC(=O)[C@H]([C@@H](C)O)NC(=O)[C@H](Cc2c[nH]c3ccccc23)NC(=O)[C@H]2CCCN2C(=O)CNC(=O)[C@H](Cc2c[nH]cn2)NC(=O)[C@@H]2CSSC[C@H](NC1=O)C(=O)N[C@@H](Cc1ccc(O)cc1)C(=O)N[C@@H](CCC(N)=O)C(=O)N[C@@H](CCCCN)C(=O)N1CCC[C@@H]1C(=O)N1CCC[C@H]1C(=O)N[C@@H](Cc1ccc(O)cc1)C(=O)N[C@@H](Cc1c[nH]cn1)C(=O)N[C@@H](CCC(=O)O)C(=O)N2) [cyclo(-Tyr-His-Glu-Cys-His-Gly-^DPro-Trp-Thr-Ile-Cys-Tyr-Gln-Lys-^DPro-Pro-)] . Reported β-Arrestin IC50?
Result block: 321

Query block: // query β-Arrestin IC50 value for entry cyclo(YHACWG[dA]WTICYQK[dP]P) (disulfide 4-11; SMILES CC[C@H](C)[C@@H]1NC(=O)[C@H]([C@@H](C)O)NC(=O)[C@H](Cc2c[nH]c3ccccc23)NC(=O)[C@@H](C)NC(=O)CNC(=O)[C@H](Cc2c[nH]c3ccccc23)NC(=O)[C@@H]2CSSC[C@H](NC1=O)C(=O)N[C@@H](Cc1ccc(O)cc1)C(=O)N[C@@H](CCC(N)=O)C(=O)N[C@@H](CCCCN)C(=O)N1CCC[C@@H]1C(=O)N1CCC[C@H]1C(=O)N[C@@H](Cc1ccc(O)cc1)C(=O)N[C@@H](Cc1c[nH]cn1)C(=O)N[C@@H](C)C(=O)N2) [cyclo(-Tyr-His-Ala-Cys-Trp-Gly-^DAla-Trp-Thr-Ile-Cys-Tyr-Gln-Lys-^DPro-Pro-)]
Result block: 213

Query block: // lookup β-Arrestin IC50 for cyclo(DHKCHG[dP]WTICYEK[dP]P) (disulfide 4-11; SMILES CC[C@H](C)[C@@H]1NC(=O)[C@H]([C@@H](C)O)NC(=O)[C@H](Cc2c[nH]c3ccccc23)NC(=O)[C@H]2CCCN2C(=O)CNC(=O)[C@H](Cc2c[nH]cn2)NC(=O)[C@@H]2CSSC[C@H](NC1=O)C(=O)N[C@@H](Cc1ccc(O)cc1)C(=O)N[C@@H](CCC(=O)O)C(=O)N[C@@H](CCCCN)C(=O)N1CCC[C@@H]1C(=O)N1CCC[C@H]1C(=O)N[C@@H](CC(=O)O)C(=O)N[C@@H](Cc1c[nH]cn1)C(=O)N[C@@H](CCCCN)C(=O)N2) [cyclo(-Asp-His-Lys-Cys-His-Gly-^DPro-Trp-Thr-Ile-Cys-Tyr-Glu-Lys-^DPro-Pro-)]
Result block: 177
